# Test system: BDF1 mice, P388 leukemia ip, median survival T/C
# measurement_description: NCI In Vivo Anticancer Drug Screen. Data for tumor model P388 Leukemia (intraperitoneal) in B6D2F1 (BDF1) mice
# test_parameters: endpoint: median survival time; dose: 100.0 mg/kg/injection; schedule: Q01DX009 (ip); vehicle: saline
Toxic doses and inconclusive results are not listed. Rule for the calls: active = survival T/C of 150% or more; inactive = T/C below 125% in these data.
Classes used: true (1) = active, false (0) = inactive

                                   compound                             system_tested  class_name
0                NC(CSCc1ccccc1)CSCc1ccccc1  BDF1 mice, P388 leukemia ip, median survival T/C   false (0)
1  CC1=NN(c2ccc(S(=O)(=O)O)cc2)C(=O)/C1=C/c1ccc(Cl)cc1  BDF1 mice, P388 leukemia ip, median survival T/C   false (0)
2               NC1=NC(=O)/C(=C/c2ccccc2)S1  BDF1 mice, P388 leukemia ip, median survival T/C   false (0)
3                        C1CC[N+]2(CC1)CCC2  BDF1 mice, P388 leukemia ip, median survival T/C   false (0)
4  COC1OC(CNC(=O)N(C)N=O)C(O)C(O)C1O (configuration not stated)  BDF1 mice, P388 leukemia ip, median survival T/C    true (1)
5  CC[N+]1(CC)CC[N+]2(CC1)CC[N+]1(CC[N+](CC)(CC)CC1)CC2  BDF1 mice, P388 leukemia ip, median survival T/C   false (0)
6   CCOC(=O)/C(C)=C\c1c(C)[nH]c(=O)[nH]c1=O  BDF1 mice, P388 leukemia ip, median survival T/C   false (0)

====

# System: BDF1 mice, P388 leukemia ip, median survival T/C
# measurement_description: NCI In Vivo Anticancer Drug Screen. Data for tumor model P388 Leukemia (intraperitoneal) in B6D2F1 (BDF1) mice
# test_parameters: endpoint: median survival time; dose: 400.0 mg/kg/injection; schedule: Q04DX003 (ip); vehicle: Klucel (hydroxypropylcellulose) (HPC); higher = longer survival
Inconclusive results and toxic doses are left out.
observable: T/C

>>> df
                                    compound        data_value
 0        C/C(=C\n1ccccc1=N)C(=O)c1ccc(F)cc1  104 % of control
 1                         Cc1ccc(CCO)c(C)c1  100 % of control
 2  CCOc1ccc(N2C(=O)CC(Sc3ccccc3N)C2=O)cc1 (stereo not given)  100 % of control
 3                      COc1c(Br)cc(Br)cc1Br  100 % of control
 4  C[C@]12CCC(=O)C=C1CC[C@@H]1[C@@H]2[C@@H](O)C[C@@]2(C)[C@H]1CC[C@]2(O)C(=O)COC(=O)CCC1CCCC1  109 % of control
 5          N#CC(C#N)=Cc1ccc(C=C(C#N)C#N)cc1  121 % of control
 6              COC(OC)c1cc(=O)[nH]c(=S)n1Cl  100 % of control
 7                     O=c1[nH]c2cc(F)ccc2o1  100 % of control
 8       Cc1ccc(NS(=O)(=O)c2ccc(F)cc2)c(C)c1  100 % of control
 9  C[C@]12CC[C@@H]3c4ccc(O)cc4CC[C@H]3[C@@H]1C[C@H](O)C2   91 % of control
10  Cc1ccc(S(=O)(=O)N2CCC(=O)c3ccc(Cl)cc32)cc1  104 % of control
11         O=[N+]([O-])c1ccc(N=Cc2ccccc2)cc1  108 % of control
12             Cc1ccc(C)c(NC(=O)c2ccccc2N)c1  104 % of control
13   CC1(CCBr)NC(=O)NC1=O (stereo not given)  100 % of control
14    CC(=O)N1CSCC1C(=O)O (stereo not given)  100 % of control
15               CCOC(=O)c1ccc(=O)n(C(C)C)c1  100 % of control
16  CC(Cl)CN(Cc1cc(O)c(CN(CC(C)Cl)CC(C)Cl)cc1O)CC(C)Cl (stereo not given)  154 % of control
17  CC(C)OC(CCC#N)c1ccccc1 (stereo not given)  109 % of control
18                         NC(=O)c1cn[nH]c1N  113 % of control
19  CC1(C)CC2C(=O)c3ccccc3NC2c2ccccc21 (stereo not given)  108 % of control
20                      NOCc1cc2c(cc1Cl)OCO2  113 % of control
21         CSC1CCCC(=O)C1 (stereo not given)   90 % of control
22           O=C(NCCBr)Nc1cccc2c1Cc1ccccc1-2   95 % of control
23  COC(OC)c1[nH]c(=S)[nH]c(=O)c1Cc1cccc(Cl)c1   95 % of control
24  COc1ccc(-n2nc3c(c2-c2cccnc2)CCc2ccccc2-3)cc1  105 % of control
25  CCOC(=O)C(C)C(=O)Cc1cc(OC)c(C)cc1Br (stereo not given)   95 % of control
26  N#CC1c2ccccc2C=CN1C(=O)c1ccccc1 (stereo not given)  109 % of control
27  C/C(N=Nc1ccccc1[N+](=O)[O-])=N\Nc1ccccc1  113 % of control
28  CCOC12c3c4cccc3C(=O)c3cccc(c31)C(=O)c1cccc(c12)C4=O   91 % of control
29         CC(=O)c1ccc(Cc2ccc(C(C)=O)cc2)cc1   95 % of control

====

# Tested on: BDF1 mice, P388 leukemia ip, median survival T/C
# measurement_description: NCI In Vivo Anticancer Drug Screen. Data for tumor model P388 Leukemia (intraperitoneal) in B6D2F1 (BDF1) mice
# test_parameters: endpoint: median survival time; dose: 100.0 mg/kg/injection; schedule: Q01DX009 (ip); vehicle: saline with Tween-80; higher = longer survival
Toxic doses and inconclusive results are not listed.
Listing: T/C of selected compounds
observable: T/C

In [3]: df
Out[3]:
                                    compound        data_value
 0  CCCNC(=O)/C=C\S(=O)CCC (stereo not drawn)  112 % of control
 1                     O=C(O)c1ccc(C2CC2)cc1   95 % of control
 2  Cn1c([N+](=O)[O-])cnc1CSC(=S)N1CCN(C(=S)SCc2ncc([N+](=O)[O-])n2C)CC1  103 % of control
 3      C#CCOCC1CNC(=S)O1 (stereo not drawn)  100 % of control
 4  CC1CCCC/C1=N/NC(=O)c1ccccc1 (stereo not drawn)   91 % of control
 5  COc1ccc(OC)c(C(C)(O)CC(=O)O)c1 (stereo not drawn)  107 % of control
 6    Cc1ccc2c(/C=C/c3ccc(N(C)C)cc3)ccnc2c1C  120 % of control
 7      CP12(OC(=O)c3ccccc31)OC(=O)c1ccccc12   91 % of control
 8      c1ccc2c(c1)ccc1cc3c(ccc4ccccc43)cc12  120 % of control
 9  O=C(CBr)N1CCC2(CC1)SSC1(CCN(C(=O)CBr)CC1)S2  112 % of control
10                CC(C)(/C=C/c1ccccc1)C(=O)O  102 % of control
11             CCOC(=O)C(CC(OCC)OCC)C(=O)OCC  100 % of control
12            CCCCSCc1nc2nc(Cl)c(Cl)nc2[nH]1  108 % of control

====

# System: BDF1 mice, P388 leukemia ip, median survival T/C
# measurement_description: NCI In Vivo Anticancer Drug Screen. Data for tumor model P388 Leukemia (intraperitoneal) in B6D2F1 (BDF1) mice
# test_parameters: endpoint: median survival time; dose: 50.0 mg/kg/injection; schedule: Q01DX009 (ip); vehicle: Klucel (hydroxypropylcellulose) (HPC); higher = longer survival
Inconclusive results and toxic doses are left out.
Entries annotated with measured T/C
observable: T/C

In [3]: df
Out[3]:
                                   compound  observable        data_value
0  CCCCN1C(=O)C2CC=C3C=CN4C(C3C2C1=O)C1C(=O)N(CCCC)C(=O)C1C41CC(=O)N(CCCC)C1=O (stereo unspecified)         T/C  104 % of control
1  O=[N+]([O-])c1ccc2c(c1)C(Br)c1ccccc1-2 (stereo unspecified)         T/C   90 % of control
2  C=C1C(=O)OC2C3OC(C)(CCC(OC(C)=O)C3COC(C)=O)CC(OC(=O)/C(=C\C)COC(C)=O)C12 (stereo unspecified)         T/C  106 % of control
3  CSc1ncnc2c1ncn2C1CCCO1 (stereo unspecified)         T/C  119 % of control
4  OC(CNc1ccc(Cl)cc1)COc1ccc(Cl)cc1Cl (stereo unspecified)         T/C  100 % of control
5  COc1cc2ccc(C(C)NCC#N)cc2cc1OC (stereo unspecified)         T/C  109 % of control
